- target system: T1, biotinylated cTfR1 (Acro Bio p/n TFR-C8249) (cynomolgus monkey, UniProt H9EXL1 89-760 (rhesus entry), biotinylated; site not stated)
- T1 construct: Bought reagent of the BLI assay
- T1 sequence (chain, as listed by the source): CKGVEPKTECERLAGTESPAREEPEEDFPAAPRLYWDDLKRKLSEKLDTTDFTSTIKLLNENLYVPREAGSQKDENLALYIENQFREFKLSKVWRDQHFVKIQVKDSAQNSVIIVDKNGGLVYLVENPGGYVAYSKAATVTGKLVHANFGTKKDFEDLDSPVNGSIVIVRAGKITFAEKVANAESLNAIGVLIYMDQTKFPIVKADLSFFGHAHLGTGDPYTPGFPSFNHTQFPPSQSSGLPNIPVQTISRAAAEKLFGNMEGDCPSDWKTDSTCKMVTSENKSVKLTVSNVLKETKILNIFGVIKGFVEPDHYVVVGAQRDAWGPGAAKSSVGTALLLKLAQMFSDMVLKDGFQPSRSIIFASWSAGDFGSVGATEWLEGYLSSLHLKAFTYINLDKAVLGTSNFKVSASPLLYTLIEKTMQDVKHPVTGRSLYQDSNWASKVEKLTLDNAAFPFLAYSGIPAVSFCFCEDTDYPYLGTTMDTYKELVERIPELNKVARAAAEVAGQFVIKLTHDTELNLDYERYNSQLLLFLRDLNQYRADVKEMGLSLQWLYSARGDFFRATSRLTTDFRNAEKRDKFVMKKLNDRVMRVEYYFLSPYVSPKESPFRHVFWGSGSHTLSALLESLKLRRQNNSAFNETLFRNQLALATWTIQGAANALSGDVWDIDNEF
- method summary: BLI, Octet RH16, biotinylated TfR1 on streptavidin sensor; Fab-siRNA conjugate
reported metric: koff (s⁻¹)
Provide the reading as a plain figure in s⁻¹.

[in] Return the recorded koff value; entry: Fab0071-siRNA conjugate (Fab, V domains shown, siRNA-linker on a reduced cysteine; chain and residue not stated, also called Fab0071 (BLI conjugate columns)) VH: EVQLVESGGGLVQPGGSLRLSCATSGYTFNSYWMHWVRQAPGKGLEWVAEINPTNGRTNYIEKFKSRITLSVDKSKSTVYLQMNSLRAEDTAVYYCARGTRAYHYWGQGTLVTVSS VL: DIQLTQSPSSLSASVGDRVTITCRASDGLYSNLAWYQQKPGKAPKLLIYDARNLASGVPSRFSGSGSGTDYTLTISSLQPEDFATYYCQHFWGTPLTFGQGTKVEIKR
[out] 0.00429

[in] Return the recorded koff value; entry: Fab0065-siRNA conjugate (Fab, V domains shown, siRNA-linker on a reduced cysteine; chain and residue not stated, also called Fab0065 (BLI conjugate columns)) VH: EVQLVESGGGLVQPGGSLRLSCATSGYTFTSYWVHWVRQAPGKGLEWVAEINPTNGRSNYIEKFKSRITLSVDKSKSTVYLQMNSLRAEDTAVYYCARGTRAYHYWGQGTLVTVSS VL: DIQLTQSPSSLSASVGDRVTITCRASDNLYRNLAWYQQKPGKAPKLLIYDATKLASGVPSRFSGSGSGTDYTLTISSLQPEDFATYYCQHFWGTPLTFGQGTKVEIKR
[out] 0.0013

[in] Return the recorded koff value; entry: Fab0064-siRNA conjugate (Fab, V domains shown, siRNA-linker on a reduced cysteine; chain and residue not stated, also called Fab0064 (BLI conjugate columns)) VH: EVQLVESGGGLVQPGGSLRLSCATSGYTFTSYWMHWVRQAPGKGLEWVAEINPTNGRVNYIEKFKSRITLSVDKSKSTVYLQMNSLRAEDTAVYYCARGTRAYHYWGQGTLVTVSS VL: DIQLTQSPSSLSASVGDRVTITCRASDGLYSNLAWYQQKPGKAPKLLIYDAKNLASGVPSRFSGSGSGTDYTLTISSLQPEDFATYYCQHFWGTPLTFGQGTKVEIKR
[out] 0.0019

[in] Return the recorded koff value; entry: Fab0074-siRNA conjugate (Fab, V domains shown, siRNA-linker on a reduced cysteine; chain and residue not stated, also called Fab0074 (BLI conjugate columns)) VH: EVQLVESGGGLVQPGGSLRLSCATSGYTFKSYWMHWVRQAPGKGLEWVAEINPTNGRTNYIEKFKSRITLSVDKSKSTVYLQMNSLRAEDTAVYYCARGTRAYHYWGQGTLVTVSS VL: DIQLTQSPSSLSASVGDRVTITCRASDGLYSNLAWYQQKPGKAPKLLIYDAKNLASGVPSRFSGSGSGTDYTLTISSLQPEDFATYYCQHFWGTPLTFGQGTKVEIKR
[out] 0.00321
